- Tested on: Enterococcus faecalis GC 4555
- test-summary: MIC by broth dilution
- Assay type: cell-based
- particulars: GC4555, Table 1, 18 hours at 35° C., read-out: MIC
Each record here notes measured MIC.
Please give a number only; it is taken to be in µg/mL.

In the examples that follow, each entry is paired with its recorded MIC.
COC(=O)c1c(O)ccc(O)c1C(=O)c1c(O)cc2c(c1O)[C@@H]1C=C[C@]3(C2)C(=C(O)c2c(O)cc(C)cc2[C@@H]3O)C1=O :: 64
COC(=O)c1c(O)ccc(O)c1C(=O)c1c(O)cc2c(c1O)[C@@H]1C=C[C@]3(C2)C(=C(O)c2c(O)cc(C)cc2[C@@H]3OC(C)=O)C1=O :: 16
COC(=O)c1c(O)ccc(O)c1C(=O)c1c(O)cc2c(c1O)[C@@H]1C=C[C@@]3(C2)[C@@H](OC(C)=O)c2cc(C)cc(O)c2C(=O)C3(O)C1=O (some centres unmarked) :: 64

# input Look up MIC for this molecule: COC(=O)c1c(O)ccc(O)c1C(=O)c1c(O)cc(C)cc1O
# output 64

# input What measured MIC goes with COC(=O)c1c(O)ccc(O)c1C(=O)c1c(O)cc(C)c(Cc2c(C)cc(O)c(C(=O)c3c(O)ccc(O)c3C(=O)OC)c2O)c1O ?
# output 64

* * *

The listing below reports MIC for compounds tested on Streptococcus pneumoniae GC 6242.
Supply the numeric figure in µg/mL, leaving out any unit text.

COC(=O)c1c(O)ccc(O)c1C(=O)c1c(O)cc2c(c1O)[C@@H]1C=C[C@]3(C2)C(=C(O)c2c(O)cc(C)cc2[C@@H]3OC(C)=O)C1=O :: 8
CCCCC(=O)O[C@H]1c2cc(C)cc(O)c2C(O)=C2C(=O)[C@H]3C=C[C@]21Cc1cc(O)c(C(=O)c2c(O)ccc(O)c2C(=O)OC)c(O)c13 [Example 8, Cyan-416 B pentanoate] :: 8
CCCC(=O)O[C@H]1c2cc(C)cc(O)c2C(O)=C2C(=O)[C@H]3C=C[C@]21Cc1cc(O)c(C(=O)c2c(O)ccc(O)c2C(=O)OC)c(O)c13 [Example 6, Cyan-416 B butyrate] :: 32

# input I would be grateful if you could share the reported MIC for CCCCCC(=O)O[C@H]1c2cc(C)cc(O)c2C(O)=C2C(=O)[C@H]3C=C[C@]21Cc1cc(O)c(C(=O)c2c(O)ccc(O)c2C(=O)OC)c(O)c13 [Example 9, Cyan-416 B hexanoate] .
# output 8

# input Request the reported MIC associated with COC(=O)c1c(O)ccc(O)c1C(=O)c1c(O)cc2c(c1O)[C@@H]1C=C[C@]3(C2)C(=C(O)c2c(O)cc(C)cc2[C@@H]3OC(=O)C(C)C)C1=O [Example 7, Cyan-416 B isobutyrate]
# output 16

* * *

- Test system: Pseudomonas aeruginosa GC 2214
- test-summary: MIC by broth dilution
- Type: cell-based
- particulars: GC2214, Table 1, 18 hours at 35° C.
Below is a list of entries, each paired with its recorded MIC value.

# example entries with known answers
COC(=O)c1c(O)ccc(O)c1C(=O)c1c(O)cc(C)cc1O :: > 64 µg/mL
COC(=O)c1c(O)ccc(O)c1C(=O)c1c(O)cc(C)c(Cc2c(C)cc(O)c(C(=O)c3c(O)ccc(O)c3C(=O)OC)c2O)c1O :: 64 µg/mL
COC(=O)c1c(O)ccc(O)c1C(=O)c1c(O)cc2c(c1O)[C@@H]1C=C[C@@]3(C2)[C@@H](OC(C)=O)c2cc(C)cc(O)c2C(=O)C3(O)C1=O (some centres unmarked) :: > 64 µg/mL
COC(=O)c1c(O)ccc(O)c1C(=O)c1c(O)cc2c(c1O)[C@@H]1C=C[C@]3(C2)C(=C(O)c2c(O)cc(C)cc2[C@@H]3OC(C)=O)C1=O :: > 64 µg/mL

API: the following record is the query input.
# input // returns reported MIC for input COC(=O)c1c(O)ccc(O)c1C(=O)c1c(O)cc2c(c1O)[C@@H]1C=C[C@]3(C2)C(=C(O)c2c(O)cc(C)cc2[C@@H]3O)C1=O
# output > 64 µg/mL
